TGI values by entry
Tested on: LOX IMVI melanoma
Assay: NCI tumour cell line growth inhibition, 48 h
METRIC NAME: TGI

{"COMPOUND": "SCCSCCCSCCS", "METRIC NAME": "TGI", "RESULT": "> 100 µM"}
{"COMPOUND": "CN(C)C(=O)OC(Cn1cncn1)(Cn1cncn1)c1ccc(Cl)cc1Cl", "METRIC NAME": "TGI", "RESULT": "> 100 µM"}
{"COMPOUND": "O=C(N/N=C(/COc1ccc([N+](=O)[O-])cc1)N=Cc1ccncc1)c1ccncc1", "METRIC NAME": "TGI", "RESULT": "> 100 µM"}
{"COMPOUND": "Cc1csc(/N=C\\c2c(O)c3ccccc3oc2=O)n1", "METRIC NAME": "TGI", "RESULT": "> 100 µM"}
{"COMPOUND": "CCCCCCCCCCCCCCCCCC(=O)OCC(COC(=O)CCCN)OC(=O)CCCN (stereo not given)", "METRIC NAME": "TGI", "RESULT": "42.5 µM"}
{"COMPOUND": "CC(C)=CCC/C(C)=C/CC/C(C)=C/CC/C(=C/CC/C(C)=C\\CC/C(C)=C/CC/C(C)=C/CC/C(C)=C/Cc1cc(O)ccc1O)CO", "METRIC NAME": "TGI", "RESULT": "> 23.4 µM"}
{"COMPOUND": "O=C(O)C(Cl)(c1ccccc1)c1ccccc1", "METRIC NAME": "TGI", "RESULT": "> 100 µM"}
{"COMPOUND": "Cc1ccc2nc(-c3ccc(N4C(=O)C(Cl)C4c4ccc(Cl)cc4)cc3)sc2c1 (stereo not given)", "METRIC NAME": "TGI", "RESULT": "18.7 µM"}
{"COMPOUND": "CC(=O)On1c(-c2ccccc2-c2nc3ccccc3n2OC(C)=O)nc2ccccc21", "METRIC NAME": "TGI", "RESULT": "> 100 µM"}
{"COMPOUND": "NC(=O)c1cccc(Nc2nccc(Nc3cccc4[nH]ncc34)n2)c1", "METRIC NAME": "TGI", "RESULT": "> 18.4 µM"}
{"COMPOUND": "CC(C)C(/C=C/c1ccc(Cl)c(Cl)c1)=N\\NC(=O)N/N=C(/C=C/c1ccc(Cl)c(Cl)c1)C(C)C", "METRIC NAME": "TGI", "RESULT": "> 100 µM"}
{"COMPOUND": "Cc1ccc(C)c(C2NC(=O)c3ccccc3N2)c1 (stereo not given)", "METRIC NAME": "TGI", "RESULT": "> 100 µM"}
{"COMPOUND": "COc1cc(CNC2c3cc4c(cc3C(c3cc(OC)c(OC)c(OC)c3)[C@H]3C(=O)OCC23)OCO4)cc(OC)c1OC (stereo not given in full)", "METRIC NAME": "TGI", "RESULT": "> 100 µM"}
{"COMPOUND": "CCN(CC)CCCC(C)N=C(C1=C(C(=NC(C)CCCN(CC)CC)c2cccc(OC)c2)C(=O)NC1=O)c1cccc(OC)c1 (stereo not given)", "METRIC NAME": "TGI", "RESULT": "2.06 µM"}
{"COMPOUND": "CCOC(=O)CC1(c2cccc3ccccc23)OC(=O)c2ccccc21 (stereo not given)", "METRIC NAME": "TGI", "RESULT": "> 100 µM"}
{"COMPOUND": "COc1ccc(N2C(=O)C3c4[nH]c5ccc(F)cc5c4C4CCC(c5ccccc5)CC4C3C2=O)cc1 (stereo not given)", "METRIC NAME": "TGI", "RESULT": "> 100 µM"}
{"COMPOUND": "O=C(O)/C(Cc1ccc([N+](=O)[O-])cc1)=N\\O", "METRIC NAME": "TGI", "RESULT": "> 100 µM"}
{"COMPOUND": "COc1ccc2c(c1)CC[C@H](O)/C2=C/c1cc(OC)c(OC)c(OC)c1", "METRIC NAME": "TGI", "RESULT": "> 100 µM"}
{"COMPOUND": "CCCCCCCCCCC1OC([C@@H](O)CC[C@H](O)C2CC[C@@H](CCCCCCCC(O)CC3=CC(C)OC3=O)O2)CCC1O (stereo not given in full)", "METRIC NAME": "TGI", "RESULT": "> 12.5 µM"}
{"COMPOUND": "COC(=O)Cc1ccc(Oc2cnc3cc(F)c(F)cc3n2)cc1", "METRIC NAME": "TGI", "RESULT": "> 100 µM"}
{"COMPOUND": "C=C1C(=O)O[C@@H]2C[C@]3(C)CC[C@]4(C)[C@H](CC[C@@H]5[C@@]6(C)CCC(=O)C(C)(C)[C@@H]6CC[C@]54C)[C@H]3[C@H]12", "METRIC NAME": "TGI", "RESULT": "29.6 µM"}
{"COMPOUND": "CC[N+]1(C)CCC(O)(c2ccc(OC)cc2)C(C(=O)c2ccc(OC)cc2)C1 (stereo not given)", "METRIC NAME": "TGI", "RESULT": "34.3 µM"}
{"COMPOUND": "Nc1ccc(C(=O)c2cn(CCN3CCOCC3)c3ccccc23)c2ccccc12", "METRIC NAME": "TGI", "RESULT": "73.1 µM"}
{"COMPOUND": "c1c[nH]c(C23C4C5C6C4C2C6C53)n1 (stereo not given)", "METRIC NAME": "TGI", "RESULT": "> 100 µM"}
{"COMPOUND": "Nc1nn2c(nc(N)c3c(N)[nH]nc32)c1N=Nc1ccc(Br)cc1", "METRIC NAME": "TGI", "RESULT": "22.6 µM"}
{"COMPOUND": "Cc1c(C(=O)/C=C/c2ccccc2O)c(=O)n(-c2ccccc2)n1C", "METRIC NAME": "TGI", "RESULT": "45.9 µM"}
{"COMPOUND": "COc1cccc(NC(=O)c2sc3nc4c(cc3c2N)C(=O)CCC4)c1", "METRIC NAME": "TGI", "RESULT": "> 100 µM"}
{"COMPOUND": "Nc1nc2c(c(=O)[nH]1)C(c1ccc(Cl)cc1)C=C(c1ccccc1)N2 (stereo not given)", "METRIC NAME": "TGI", "RESULT": "> 100 µM"}
{"COMPOUND": "COc1ccc2cc(CN3CCC(C4CCNCC4)CC3)ccc2c1", "METRIC NAME": "TGI", "RESULT": "2.94 µM"}
{"COMPOUND": "COc1ccc(CN=C(N)N)c2ccccc12", "METRIC NAME": "TGI", "RESULT": "> 100 µM"}
{"COMPOUND": "CC1=NN(c2nc(N)nc(CC#N)n2)C(C)(C)C1", "METRIC NAME": "TGI", "RESULT": "> 100 µM"}
{"COMPOUND": "CN(c1ccccc1Cl)S(=O)(=O)c1ccc([N+](=O)[O-])cc1", "METRIC NAME": "TGI", "RESULT": "> 100 µM"}
{"COMPOUND": "CC(C)(C)[Si](C)(C)OC1[C@@H](O[Si](C)(C)C(C)(C)C)[C@@H](CNC(=O)NC(=O)CCl)O[C@H]1n1cnc2c(NC(=O)Nc3ccccc3)ncnc21 (stereo not given in full)", "METRIC NAME": "TGI", "RESULT": "0.18 µM"}
{"COMPOUND": "O=[N+]([O-])c1cc2c(cc1/C=N/n1c(CO)nc3ccccc31)OCO2", "METRIC NAME": "TGI", "RESULT": "> 100 µM"}
{"COMPOUND": "CCn1c(-c2cc3ccccc3cc2O)nn(C(=O)c2c(Cl)cccc2Cl)c1=S", "METRIC NAME": "TGI", "RESULT": "> 50 µM"}
{"COMPOUND": "COC(=O)N1CC2C3C4CC(C(c5ccccc5)=C4c4ccccc4)C3C21 (stereo not given)", "METRIC NAME": "TGI", "RESULT": "25.6 µM"}
{"COMPOUND": "COc1cccc(C2c3cc4c(cc3OC(N3CCCC3)C2C)OCO4)c1O (stereo not given)", "METRIC NAME": "TGI", "RESULT": "> 66.2 µM"}
{"COMPOUND": "CSc1n[n+]2c(s1)SCCC2", "METRIC NAME": "TGI", "RESULT": "> 100 µM"}
{"COMPOUND": "Cn1c2ccc(Br)cc2c2c3c(c4c5ccccc5[nH]c4c21)C(=O)N(O)C3=O", "METRIC NAME": "TGI", "RESULT": "0.193 µM"}
{"COMPOUND": "CC(=O)OC1COC(Nc2nc(NCc3ccccc3)n(C)c(=O)c2N=O)C(OC(C)=O)C1OC(C)=O (stereo not given)", "METRIC NAME": "TGI", "RESULT": "> 10 µM"}

Data provenance is PubChem BioAssay (NCI).
